TARGET_ENTITY: TRPC6 (transient receptor potential canonical 6) (Homo sapiens)
Sequence (Q9Y210 whole entry): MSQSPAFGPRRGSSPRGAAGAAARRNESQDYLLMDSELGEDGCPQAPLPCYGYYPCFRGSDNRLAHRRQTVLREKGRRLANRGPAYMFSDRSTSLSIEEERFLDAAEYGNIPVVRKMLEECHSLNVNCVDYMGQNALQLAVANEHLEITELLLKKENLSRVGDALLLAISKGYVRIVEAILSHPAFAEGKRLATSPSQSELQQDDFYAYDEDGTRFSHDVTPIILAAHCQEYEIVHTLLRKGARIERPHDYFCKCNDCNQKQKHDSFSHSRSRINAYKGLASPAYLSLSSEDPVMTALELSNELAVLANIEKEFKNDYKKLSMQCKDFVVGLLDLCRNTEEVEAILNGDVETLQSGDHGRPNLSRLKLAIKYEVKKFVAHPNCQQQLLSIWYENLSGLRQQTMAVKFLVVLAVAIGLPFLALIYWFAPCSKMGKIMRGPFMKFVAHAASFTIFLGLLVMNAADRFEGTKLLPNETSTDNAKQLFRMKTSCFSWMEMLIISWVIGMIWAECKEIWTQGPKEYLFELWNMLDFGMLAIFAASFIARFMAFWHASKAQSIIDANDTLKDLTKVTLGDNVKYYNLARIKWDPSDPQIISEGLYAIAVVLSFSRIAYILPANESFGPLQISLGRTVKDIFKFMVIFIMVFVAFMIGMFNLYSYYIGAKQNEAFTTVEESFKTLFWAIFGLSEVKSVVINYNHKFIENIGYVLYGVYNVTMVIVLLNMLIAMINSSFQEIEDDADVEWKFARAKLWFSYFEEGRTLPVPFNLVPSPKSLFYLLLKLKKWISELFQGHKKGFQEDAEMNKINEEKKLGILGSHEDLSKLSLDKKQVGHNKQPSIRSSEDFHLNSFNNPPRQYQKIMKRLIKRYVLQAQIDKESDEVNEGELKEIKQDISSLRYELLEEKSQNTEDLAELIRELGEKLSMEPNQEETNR
PROCEDURE_DETAILS: Fluo-4 Ca2+ assay in TRPC6-HEK293 cells; also electrophysiology of GSK1702934A-evoked TRPC6 currents
READOUT_NAME: IC50 (nM)
# unit: nM | format: bare number

Input line: Supply recorded IC50 for COc1cccc2sc(N(CCN3CCCC3)C(=O)c3ccc4c(c3)OCO4)nc12 [PCC0208057] here.
Output line: 2440
